Parameter: PI3Kγ IH % @ 1 uM. Scope: all listed entries.
Target: UniProt:P48736
Sequence (P48736 whole entry): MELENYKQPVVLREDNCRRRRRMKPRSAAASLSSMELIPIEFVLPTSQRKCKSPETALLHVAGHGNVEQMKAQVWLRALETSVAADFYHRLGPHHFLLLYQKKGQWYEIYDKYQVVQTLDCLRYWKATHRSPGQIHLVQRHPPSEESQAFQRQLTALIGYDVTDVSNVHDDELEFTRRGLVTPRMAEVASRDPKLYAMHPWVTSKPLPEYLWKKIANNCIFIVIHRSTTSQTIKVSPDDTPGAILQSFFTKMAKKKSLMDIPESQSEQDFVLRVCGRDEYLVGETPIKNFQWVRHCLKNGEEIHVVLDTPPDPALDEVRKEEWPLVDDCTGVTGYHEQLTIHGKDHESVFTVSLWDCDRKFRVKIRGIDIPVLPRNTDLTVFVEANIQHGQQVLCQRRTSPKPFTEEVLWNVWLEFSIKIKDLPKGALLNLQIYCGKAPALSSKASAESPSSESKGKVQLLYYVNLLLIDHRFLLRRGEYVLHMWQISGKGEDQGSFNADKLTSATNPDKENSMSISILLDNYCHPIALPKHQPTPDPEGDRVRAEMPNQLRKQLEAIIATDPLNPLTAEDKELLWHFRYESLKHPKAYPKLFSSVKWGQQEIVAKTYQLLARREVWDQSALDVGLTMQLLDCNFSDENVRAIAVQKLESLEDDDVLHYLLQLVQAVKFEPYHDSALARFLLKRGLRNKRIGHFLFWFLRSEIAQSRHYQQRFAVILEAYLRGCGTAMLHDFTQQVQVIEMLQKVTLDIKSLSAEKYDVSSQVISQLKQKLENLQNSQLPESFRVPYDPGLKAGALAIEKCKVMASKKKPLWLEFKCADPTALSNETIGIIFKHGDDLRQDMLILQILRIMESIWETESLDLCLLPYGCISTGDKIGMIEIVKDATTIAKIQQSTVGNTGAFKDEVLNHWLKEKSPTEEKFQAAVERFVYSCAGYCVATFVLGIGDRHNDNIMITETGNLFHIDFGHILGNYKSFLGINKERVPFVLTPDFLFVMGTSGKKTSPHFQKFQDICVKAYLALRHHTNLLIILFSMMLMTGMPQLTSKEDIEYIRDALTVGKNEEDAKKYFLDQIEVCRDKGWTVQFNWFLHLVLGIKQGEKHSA
Assay: Transcreener KINASE Assay, kinase inhibition of p110γ
Assay type: biochemical
Conditions: 1 uM test compound
Description: Kinase Inhibition assays of p110α/p85α, p110β/p85α, p110δ/p85α and p110γ PI3K kinases including p110α/p85α, p110δ/p85α and p110γ are purchased from Invitrogen, and p110β/p85α is from Millipore. Primary screening data and IC50 values are measured using Transcreener™ KINASE Assay (Bellbrook, Catalog #3003-10K). […] The plate is sealed again and incubated for 60 min at room temperature, and then measure fluorescence polarization by Tecan Infinite F500 Reader. […]
Record the result as number plus unit.

Molecule	PI3Kγ IH % @ 1 uM
CNC(=O)c1c[nH]c2ncnc(N3CCC[C@H]3c3nn4ccc(Cl)c4c(=O)n3-c3ccccc3)c12 [Compound 96]	94.3%
CC(Nc1ncnc2[nH]cc(C#N)c12)c1cc2ncc(Cl)n2c(=O)n1-c1cccc(F)c1 (stereo not shown) [Compound 118]	5.2%
COc1cccc(-n2c([C@@H]3CCN3c3ncnc(N)c3C#N)nn3ccc(Cl)c3c2=O)c1 [Compound 35]	61.2%
Cc1ccn2nc([C@@H]3CCCN3c3nc(N)nc4[nH]cnc34)n(-c3ccccc3)c(=O)c12 [Compound 44]	95.2%
C[S@@+]([O-])c1c[nH]c2ncnc(N3C[C@@H](C#N)C[C@H]3c3nn4ccc(Cl)c4c(=O)n3-c3cccc(F)c3)c12 [Compound 349]	76.6%
N#Cc1cnc(N)nc1N1CCC[C@H]1c1nn2ccc(F)c2c(=O)n1-c1ccccc1 [Compound 230]	87.3%

Then there is this molecule:
Sample CC(=O)c1c[nH]c2ncnc(NC(C)c3cn4ccc(Cl)c4c(=O)n3-c3cccc(F)c3)c12 (stereo not shown) [Compound 276] ; PI3Kγ IH % @ 1 uM observed: 95.7%
